- procedure_text: Blood levels after oral administration in the rat
- Assay type: in vivo
- details: Ratte, orale Dosis 20 mg/kg, after 60 min, read-out: Antibiotikumkonzentration im Blut
measure: concentration at 1 h (ng/mL)
Answers are plain numbers, in ng/mL.

Memo: CO/N=C(\C(=O)N[C@@H]1C(=O)N2C(C(=O)OCOC(=O)C(C)(C)C)=C(CSc3nc(C(=O)OCOC(=O)C(C)(C)C)nn3C)CS[C@H]12)c1csc(N)n1 [Produkt A] , reported concentration at 1 h: 10000

----------
- procedure_text: Blood levels after oral administration in the rat
- Format: in vivo
- details: Ratte, orale Dosis 20 mg/kg, after 15 min, read-out: Antibiotikumkonzentration im Blut
measure: concentration at 0.25 h (ng/mL)
Give bare numbers, in ng/mL.

The reported value for "CO/N=C(\C(=O)N[C@@H]1C(=O)N2C(C(=O)OCOC(=O)C(C)(C)C)=C(CSc3nc(C(=O)OCOC(=O)C(C)(C)C)nn3C)CS[C@H]12)c1csc(N)n1" in terms of concentration at 0.25 h is 6000

----------
- procedure_text: Blood levels after oral administration in the rat
- Format: in vivo
- details: Ratte, orale Dosis 20 mg/kg, after 45 min, read-out: Antibiotikumkonzentration im Blut
measure: concentration at 0.75 h (ng/mL)
Answers are plain numbers, in ng/mL.

Data point: "CO/N=C(\C(=O)N[C@@H]1C(=O)N2C(C(=O)OCOC(=O)C(C)(C)C)=C(CSc3nc(C(=O)OCOC(=O)C(C)(C)C)nn3C)CS[C@H]12)c1csc(N)n1" ; concentration at 0.75 h = 12000

----------
- procedure_text: Blood levels after oral administration in the rat
- Type: in vivo
- details: Ratte, orale Dosis 20 mg/kg, after 90 min, read-out: Antibiotikumkonzentration im Blut
measure: concentration at 1.5 h (ng/mL)
Answers are plain numbers, in ng/mL.

# concentration at 1.5 h of CO/N=C(\C(=O)N[C@@H]1C(=O)N2C(C(=O)OCOC(=O)C(C)(C)C)=C(CSc3nc(C(=O)OCOC(=O)C(C)(C)C)nn3C)CS[C@H]12)c1csc(N)n1 [Produkt A] = 8000

----------
- procedure_text: in vivo
- details: mouse, po
measure: LD50 at 24 h

For record "CO/N=C(\C(=O)N[C@@H]1C(=O)N2C(C(=O)OCOC(=O)C(C)(C)C)=C(CSc3nc(C(=O)OCOC(=O)C(C)(C)C)nn3C)CS[C@H]12)c1csc(N)n1" the listed LD50 at 24 h is > 4000 mg/kg

----------
- procedure_text: Blood levels after oral administration in the rat
- Type: in vivo
- details: Ratte, orale Dosis 20 mg/kg, after 30 min, read-out: Antibiotikumkonzentration im Blut
measure: concentration at 0.5 h (ng/mL)
One number for each entry, in ng/mL.

The reported value for CO/N=C(\C(=O)N[C@@H]1C(=O)N2C(C(=O)OCOC(=O)C(C)(C)C)=C(CSc3nc(C(=O)OCOC(=O)C(C)(C)C)nn3C)CS[C@H]12)c1csc(N)n1 [Produkt A] in terms of concentration at 0.5 h is 12000
